Test system: HIV-1 HT/92/599
Assay info: HIV-1 reverse transcriptase activity after infection of fresh human PBMCs
Assay type: cell-based
Experimental conditions: read-out: PBMC/HIV-1HT/92/599 EC50 ± SD; seven days, reverse transcriptase activity
pEC50: −log10 of the molar value.
Label t when pEC50 is at or above 7; anything below gets f.

- COCCOCCOCCOc1ccc(C[C@H](NC(=O)O[C@H]2CO[C@H]3OCC[C@H]32)C(O)CN(CC(C)C)S(=O)(=O)c2ccc(N)cc2)cc1 (some centres unmarked): t
- COCCOCCOCCOC(=O)N[C@@H](C(=O)NC(Cc1ccccc1)[C@@H](O)CN(Cc1ccc(-c2ccccn2)cc1)NC(=O)[C@H](NC(=O)OCCOCCOCCOC)C(C)(C)C)C(C)(C)C (some centres unmarked): f
- COCCOC(=O)NC(C(=O)NC(Cc1ccccc1)C(O)CN(Cc1ccc(-c2ccccn2)cc1)NC(=O)C(NC(=O)OC)C(C)(C)C)C(C)(C)C (centres unmarked): t
- CC(C)(C)NC(=O)[C@@H]1C[C@@H]2CCCC[C@@H]2CN1C[C@@H](O)[C@H](Cc1ccccc1)NC(=O)[C@H](CC(N)=O)NC(=O)c1ccc2ccccc2n1: t
- COCCOCCOCCOCCOCCOCCOCCOc1ccc(C[C@H](NC(=O)O[C@H]2CO[C@H]3OCC[C@H]32)C(O)CN(CC(C)C)S(=O)(=O)c2ccc(N)cc2)cc1 (some centres unmarked): f
